# ASSAY_REMARKS: solvent given as SMILES
# PROTOCOL_CONDITIONS: in Cc1ccccc1
TEST_READOUT: absorption maximum (nm)
State just the number; it will be interpreted in nm.

Check out these entries, answers already filled in.
Cc1cc(N2c3ccccc3C3(c4ccccc4-c4ccccc43)c3ccccc32)c(C)cc1-c1nc(-c2ccccc2)nc(-c2ccccc2)n1
382.89
CC(C)(C)c1ccc2c(c1)c1cc(C(C)(C)C)ccc1n2-c1cccc(-n2c3ccc(C(C)(C)C)cc3c3cc(C(C)(C)C)ccc32)c1C#N
367

Recorded absorption maximum for COc1ccc(N(c2ccccc2)c2ccccc2)cc1 , please? 299

Recorded absorption maximum for COC(=O)/C(C#N)=c1\s/c(=c2/s/c(=C(/C#N)C(=O)OC)c3cc(-c4ccc(OC)cc4)sc23)c2sc(-c3ccc(OC)cc3)cc12 , please? 628
